Source of measurements: patent US20260166168A1

# Target System: T1, recombinant extracellular domain protein of cynomolgus monkey DLL3 (cyno.DLL3-ECD-His) (cynomolgus monkey, UniProt A0A2K5WSR1 27-490)
# T1 construct: extracellular domain; Commercial protein; not shown: His tag
# T1 sequence: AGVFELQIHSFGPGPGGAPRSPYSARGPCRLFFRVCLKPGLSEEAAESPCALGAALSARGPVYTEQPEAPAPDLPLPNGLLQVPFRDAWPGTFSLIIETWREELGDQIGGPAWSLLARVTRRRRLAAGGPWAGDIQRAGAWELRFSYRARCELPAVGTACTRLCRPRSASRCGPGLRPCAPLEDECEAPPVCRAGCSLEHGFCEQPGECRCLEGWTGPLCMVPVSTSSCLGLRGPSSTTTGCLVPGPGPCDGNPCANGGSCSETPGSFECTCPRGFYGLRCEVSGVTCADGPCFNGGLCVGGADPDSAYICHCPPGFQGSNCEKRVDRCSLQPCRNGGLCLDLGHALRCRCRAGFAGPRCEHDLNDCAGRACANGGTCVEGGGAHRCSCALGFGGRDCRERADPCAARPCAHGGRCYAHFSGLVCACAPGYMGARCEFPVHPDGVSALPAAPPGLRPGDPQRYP
# Experiment Summary: BLI (ForteBio), antibody on ProA sensor, cynoDLL3-ECD-His in solution
Measurement Type: koff (s⁻¹)

binder="10F2F3-Hz antibody (antibody, human IgG1, kappa, V domains shown, Humanized) VH: QVQLVESGAEVKKPGSSVKVSCKASGYAFSSHWVNWVRQAPGQGLEWMGQIYPGNGDTNYAQKFQGRVTLTADKSTSTAYMELSSLTSEDTAVYFCARWFAYWGQGTLVTVSS VL: DIQMTQSPSSLSASVGDRVTITCKSSQSLLDGGNQKNYLAWYQQKPGKPPKLLVYFASIRESGVPSRFSGSGSGTDFTLTISSLQPEDFATYYCQQHYNTPWTFGQGTKVEIKR" recorded_result=0.000122
